Hey, just so you know, these numbers are from patent US20110118447A1.

Target: binding partner of C5A (XPA23)
Assay: Biacore K-off
measure: fold difference in affinity vs original (fold)
// return numeric value only (unit: fold, not printed)

Here's what some known entries look like.
INSERT INTO results (binder, measured_value) VALUES
  ('C5A (XPA23) VL F94I (antibody, V domains shown) VH: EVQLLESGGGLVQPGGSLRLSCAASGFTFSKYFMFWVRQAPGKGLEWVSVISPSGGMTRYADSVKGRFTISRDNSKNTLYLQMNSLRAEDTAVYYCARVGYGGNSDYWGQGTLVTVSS VL: DIQMTQSPSSVSASVGDRLTIICRASQDINRWLAWYQQTPGNAPKLLIHSATSLQSGVPSRFSGSGSGTDFTLTINSLQPEDFATYYCQQADSIPLTFGGGTKVEIK', 0.88),
  ('C5A (XPA23) VL T52I (antibody, V domains shown) VH: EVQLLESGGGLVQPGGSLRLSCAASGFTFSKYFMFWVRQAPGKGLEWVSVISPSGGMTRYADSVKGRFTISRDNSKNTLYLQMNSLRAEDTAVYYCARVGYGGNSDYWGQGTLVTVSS VL: DIQMTQSPSSVSASVGDRLTIICRASQDINRWLAWYQQTPGNAPKLLIHSAISLQSGVPSRFSGSGSGTDFTLTINSLQPEDFATYYCQQADSFPLTFGGGTKVEIK', 0.8),
  ('C5A (XPA23) VH F33Q (antibody, V domains shown) VH: EVQLLESGGGLVQPGGSLRLSCAASGFTFSKYQMFWVRQAPGKGLEWVSVISPSGGMTRYADSVKGRFTISRDNSKNTLYLQMNSLRAEDTAVYYCARVGYGGNSDYWGQGTLVTVSS VL: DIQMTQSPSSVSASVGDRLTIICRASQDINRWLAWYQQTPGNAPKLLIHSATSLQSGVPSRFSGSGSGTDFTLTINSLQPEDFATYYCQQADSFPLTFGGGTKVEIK', 0.78),
  ('C5A (XPA23) VL Q27R (antibody, V domains shown) VH: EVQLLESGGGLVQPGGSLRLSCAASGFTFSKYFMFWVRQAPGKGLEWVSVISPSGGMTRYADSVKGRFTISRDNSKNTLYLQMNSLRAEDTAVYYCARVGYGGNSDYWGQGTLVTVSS VL: DIQMTQSPSSVSASVGDRLTIICRASRDINRWLAWYQQTPGNAPKLLIHSATSLQSGVPSRFSGSGSGTDFTLTINSLQPEDFATYYCQQADSFPLTFGGGTKVEIK', 0.89),
  ('C5A (XPA23) VH F33K (antibody, V domains shown) VH: EVQLLESGGGLVQPGGSLRLSCAASGFTFSKYKMFWVRQAPGKGLEWVSVISPSGGMTRYADSVKGRFTISRDNSKNTLYLQMNSLRAEDTAVYYCARVGYGGNSDYWGQGTLVTVSS VL: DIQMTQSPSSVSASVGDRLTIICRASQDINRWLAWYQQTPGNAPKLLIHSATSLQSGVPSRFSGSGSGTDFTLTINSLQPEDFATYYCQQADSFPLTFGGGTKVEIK', 0.85);

Give the reported value of fold difference in affinity vs original for this record: C5A (XPA23) VL D92T (antibody, V domains shown) VH: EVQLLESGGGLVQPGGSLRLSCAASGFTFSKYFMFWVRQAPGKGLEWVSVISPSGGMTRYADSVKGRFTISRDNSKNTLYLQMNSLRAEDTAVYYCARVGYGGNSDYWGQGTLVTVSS VL: DIQMTQSPSSVSASVGDRLTIICRASQDINRWLAWYQQTPGNAPKLLIHSATSLQSGVPSRFSGSGSGTDFTLTINSLQPEDFATYYCQQATSFPLTFGGGTKVEIK
0.34

Give the reported value of fold difference in affinity vs original for this record: C5A (XPA23) VL D92G (antibody, V domains shown) VH: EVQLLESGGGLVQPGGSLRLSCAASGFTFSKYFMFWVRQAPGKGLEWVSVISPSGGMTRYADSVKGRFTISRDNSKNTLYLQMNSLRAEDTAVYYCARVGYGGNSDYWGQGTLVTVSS VL: DIQMTQSPSSVSASVGDRLTIICRASQDINRWLAWYQQTPGNAPKLLIHSATSLQSGVPSRFSGSGSGTDFTLTINSLQPEDFATYYCQQAGSFPLTFGGGTKVEIK
0.26

Give the reported value of fold difference in affinity vs original for this record: C5A (XPA23) VH Y32T (antibody, V domains shown) VH: EVQLLESGGGLVQPGGSLRLSCAASGFTFSKTFMFWVRQAPGKGLEWVSVISPSGGMTRYADSVKGRFTISRDNSKNTLYLQMNSLRAEDTAVYYCARVGYGGNSDYWGQGTLVTVSS VL: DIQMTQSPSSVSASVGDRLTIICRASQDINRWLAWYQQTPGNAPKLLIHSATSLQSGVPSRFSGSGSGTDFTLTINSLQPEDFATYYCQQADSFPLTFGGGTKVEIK
0.8

Give the reported value of fold difference in affinity vs original for this record: C5A (XPA23) VL T52S (antibody, V domains shown) VH: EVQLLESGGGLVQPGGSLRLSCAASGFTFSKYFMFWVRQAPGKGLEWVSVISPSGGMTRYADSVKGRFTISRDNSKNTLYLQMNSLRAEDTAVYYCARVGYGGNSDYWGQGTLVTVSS VL: DIQMTQSPSSVSASVGDRLTIICRASQDINRWLAWYQQTPGNAPKLLIHSASSLQSGVPSRFSGSGSGTDFTLTINSLQPEDFATYYCQQADSFPLTFGGGTKVEIK
0.78

Give the reported value of fold difference in affinity vs original for this record: C5A (XPA23) VH K31I (antibody, V domains shown) VH: EVQLLESGGGLVQPGGSLRLSCAASGFTFSIYFMFWVRQAPGKGLEWVSVISPSGGMTRYADSVKGRFTISRDNSKNTLYLQMNSLRAEDTAVYYCARVGYGGNSDYWGQGTLVTVSS VL: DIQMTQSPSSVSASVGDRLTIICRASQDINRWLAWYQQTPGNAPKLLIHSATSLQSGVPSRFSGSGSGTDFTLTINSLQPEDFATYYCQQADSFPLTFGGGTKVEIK
0.74
